propertyName: logP
Answer as a number with no unit attached.

If you can, please state the reported logP value of CC(=O)N(O)CCCCCNC(=O)CCC(=O)N(O)CCCCCNC(=O)CCC(=O)N(O)CCCCCN .
-1.52

###

- testMethodNotes: method code SF-AS, from DOI: 10.1016/s0090-9556(25)07961-9, PMID: 6130927
- conditionParameters: pH 12.0
propertyName: logD
Answer as a number with no unit attached.

If you can, please state the reported logD value of CC(C)[C@@H](N)Cc1ccccc1 .
2.59

###

- testMethodNotes: method code SF-AS, from DOI: 10.1002/chin.198419165, PMID: 6653771
- conditionParameters: pH 2.5
propertyName: logD
Answer as a number with no unit attached.

If you can, please state the reported logD value of N#CCNc1ccccc1C(=O)O .
1.75

###

- testMethodNotes: method code SF-AS, from DOI: 10.1002/etc.5620180606
propertyName: logP
Answer as a number with no unit attached.

Known logP results, listed for orientation:
> print(dat)
                                   molecule  propertyname  readoutvalue
1  O=[N+]([O-])c1cc(S(=O)(=O)Nc2ccccc2)ccc1Nc1ccccc1          logP          3.62
2  CC(=O)CCC(C#N)Nc1ccc(N=Nc2nc3ccc([N+](=O)[O-])cc3s2)cc1 (stereo not given)          logP          4.08
3  COc1cc(/N=N/c2c(Br)cc([N+](=O)[O-])cc2[N+](=O)[O-])c(NC(C)=O)cc1N(CCOC(C)=O)CCOC(C)=O          logP          4.44
4  Nc1c(Oc2ccccc2)c(Oc2ccccc2)c(N)c2c1C(=O)c1ccccc1C2=O          logP          5.19

If you can, please state the reported logP value of Cc1c(O)c(C#N)c(C)c(N=Nc2ccc(Cl)c(Cl)c2)c1O .
3.74

###

- testMethodNotes: method code SF-RC, from DOI: 10.1023/a:1015825912542, PMID: 1808606
- conditionParameters: pH 7.2
propertyName: logD
Answer as a number with no unit attached.

If you can, please state the reported logD value of CC(=O)NC(Cc1ccccc1)C(N)=O (stereo unspecified) .
0.05

###

- testMethodNotes: method code SF-HPLC, from DOI: 10.1023/a:1018903407592, PMID: 8165182
- conditionParameters: pH 7.4
Each entry below lists one item and its recorded logD value.

Known logD results, listed for orientation:
> print(dat)
                                 molecule  readoutvalue
1   CCCCC(=O)OCCOCn1cnc2c(=O)[nH]c(N)nc21          0.37
2  CCCCCC(=O)OCCOCn1cnc2c(=O)[nH]c(N)nc21          0.93

If you can, please state the reported logD value of CCCC(=O)OCCOCn1cnc2c(=O)[nH]c(N)nc21 .
-0.08

###

- testMethodNotes: method code SF-AS, from Schaper, J. (1979). Simultaneous determination of electronic and lipophilic properties of acids and bases by nonlinear regression analysis of pH-dependent partition measurements. J. Chem. Research …
propertyName: logP
Answer as a number with no unit attached.

> print(dat)
                               molecule  propertyname  readoutvalue
1  CN(C)c1ccc(NS(=O)(=O)c2ccc(N)cc2)cc1          logP          1.57

Turning now to a further molecule:
If you can, please state the reported logP value of Cc1ccc(NS(=O)(=O)c2ccc(N)cc2)cc1 .
2.11

###

propertyName: logP

If you can, please state the reported logP value of CCCOC(=O)c1ccccc1C(=O)OCCC .
4.05

###

- testMethodNotes: method code SF-HPLC, from DOI: 10.1016/0378-5173(94)90060-4
- conditionParameters: pH 5.0
propertyName: logD
Answer as a number with no unit attached.

> print(dat)
                                   molecule  readoutvalue
1  CCCOC(=O)n1c(NC(=O)OC)nc2cc(C(=O)c3ccccc3)ccc21          3.43

Turning now to a further compound:
If you can, please state the reported logD value of CCOC(=O)n1c(NC(=O)OC)nc2cc(C(=O)c3ccccc3)ccc21 .
2.93

###

Each entry below lists one item and its recorded logP value.
- testMethodNotes: method code SF-AS, from DOI: 10.1016/0147-6513(87)90041-8, PMID: 3830021
Answer as a number with no unit attached.

Known logP results, listed for orientation:
> print(dat)
                                   molecule  propertyname  readoutvalue
1  N#CCCN(CCO)c1ccc(/N=N/c2ccc([N+](=O)[O-])cc2Cl)cc1          logP           3.9
2  CCCCn1c(=O)c2c(N)c3c(=O)c4ccccc4c(=O)c3c(N)c2c1=O          logP             4
3  CCCCC(CC)Cn1c(O)c(C#N)c(C)c(/N=N/c2ccccc2[N+](=O)[O-])c1=O (stereo unspecified)          logP           4.5
4  CC(=O)Nc1cc(NCC(C)O)c(Cl)cc1/N=N/c1ccc([N+](=O)[O-])cc1Cl (stereo unspecified)          logP             4

If you can, please state the reported logP value of CCn1c(O)c(C#N)c(C)c(/N=N/c2ccc(Cl)cc2[N+](=O)[O-])c1=O .
3.4

If you can, please state the reported logP value of CCCCN(CCOC(C)=O)c1ccc(/N=N/c2c(C#N)cc([N+](=O)[O-])cc2C#N)c(C)c1 .
4

###

- testMethodNotes: method code SF-AS, from DOI: 10.1213/00000539-199008000-00008, PMID: 2375517
propertyName: logP
Answer as a number with no unit attached.

If you can, please state the reported logP value of CCCN1CCCC[C@H]1C(=O)Nc1c(C)cccc1C .
2.89

###

Each entry below lists one item and its recorded logD value.
- testMethodNotes: method code SF-RC, from DOI: 10.1016/j.bmc.2006.11.022, PMID: 17293116
- conditionParameters: pH 7.4
Answer as a number with no unit attached.

> print(dat)
                                   molecule  propertyname  readoutvalue
1  COc1ccc2nc(-c3ccc4nc(-c5ccc(N)cc5)sc4c3)sc2c1          logD          1.56

Turning now to a further compound:
If you can, please state the reported logD value of CNc1ccc(-c2nc3ccc(-c4nc5ccc(F)cc5s4)cc3s2)cc1 .
2.48

###

- testMethodNotes: method code SF-RC, from DOI: 10.1021/acs.jmedchem.6b00849, PMID: 27690428
- conditionParameters: pH 7.4
propertyName: logD
Answer as a number with no unit attached.

If you can, please state the reported logD value of N#Cc1ccc(N(Cc2ccc(I)cc2)n2cnnc2)cc1 .
2.48

###

propertyName: logP
Answer as a number with no unit attached.

If you can, please state the reported logP value of O=C1c2ccccc2C(=O)C1c1ccccc1 .
2.5

###

- testMethodNotes: method code SF-AS, from DOI: 10.1139/y89-042, PMID: 2547502
- conditionParameters: pH 7.4
propertyName: logD
Answer as a number with no unit attached.

If you can, please state the reported logD value of Nc1ncnc2c1ncn2[C@@H]1O[C@@H]2COP(=O)(O)O[C@H]2[C@H]1O .
-2.96

###

propertyName: logP
Answer as a number with no unit attached.

> print(dat)
                                   molecule  propertyname  readoutvalue
1  CC12CC3c4ccc(O)cc4CCC3C1CCC2OC(=O)C1=CN(Cc2ccccc2)C=CC1 (stereo not given)          logP          5.39
2  CC12CC3c4ccc(O)cc4CCC3C1CCC2OC(=O)C1=CN(CCCO)C=CC1 (stereo not given)          logP          4.89

If you can, please state the reported logP value of CCCCCCN1C=CCC(C(=O)OC2CCC3C4CCc5cc(O)ccc5C4CC23C)=C1 (stereo not given) .
5.07

If you can, please state the reported logP value of CCN1C=CCC(C(=O)OC2CCC3C4CCc5cc(O)ccc5C4CC23C)=C1 (stereo not given) .
4.66

If you can, please state the reported logP value of CCCN1C=CCC(C(=O)OC2CCC3C4CCc5cc(O)ccc5C4CC23C)=C1 (stereo not given) .
4.79

###

propertyName: logP
Answer as a number with no unit attached.

If you can, please state the reported logP value of CCCCC(c1c(O)c2ccccc2oc1=O)c1c(O)c2ccccc2oc1=O .
2.69

If you can, please state the reported logP value of CCCC(c1c(O)c2ccccc2oc1=O)c1c(O)c2ccccc2oc1=O .
2.31

If you can, please state the reported logP value of CC(c1c(O)c2ccccc2oc1=O)c1c(O)c2ccccc2oc1=O .
0.43

If you can, please state the reported logP value of O=c1oc2ccccc2c(O)c1Cc1c(O)c2ccccc2oc1=O .
1.83
